experiment: A CellTox Green Cytotoxicity Assay to monitor cytotoxicity in HEK293 cells - 8 hour (AID 1224884); conditions: CellTox Green fluorescence; series mostly up to 76.8 µM; note: % is set by controls: 0 for no effect and ±100 for the full control effect; nearly all actives have a fitted effect of over 35% in size
Inconclusive results are not listed. Active and inactive are the calls of the source. Calls come from the whole dose curve; as a rule, active = well fitted activation curve with a large enough effect in the repeat runs; inconclusive = weak or mixed curves; inactive = flat fitted curve, though single readings scatter.
outcome-measure: cytotoxicity increase

> print(dat)
                                    compound        outcome.measure                       obs.value
 1                    CC(=O)CC(C)(C)C1CCCCC1  cytotoxicity increase                        inactive
 2     CC1=CC(C)C(C=O)CC1 (stereo not given)  cytotoxicity increase                        inactive
 3  CC(NC(CCc1ccccc1)C(=O)O)C(=O)N1C(=O)N(C)CC1C(=O)O (stereo not given)  cytotoxicity increase                        inactive
 4                               CCOC(C)(C)C  cytotoxicity increase                        inactive
 5  NS(=O)(=O)c1cc(C(=O)O)cc(N2CCCC2)c1Oc1ccccc1  cytotoxicity increase                        inactive
 6               c1ccc([C@H]2CN3CCSC3=N2)cc1  cytotoxicity increase                        inactive
 7                       c1ccc(CC2=NCCN2)cc1  cytotoxicity increase                        inactive
 8                       CC(C)(O)C#CC(C)(C)O  cytotoxicity increase                        inactive
 9                          CCOC(=O)C(=O)OCC  cytotoxicity increase                        inactive
10      COC(=O)c1cc(C(=O)OC)cc(S(=O)(=O)O)c1  cytotoxicity increase                        inactive
11                   CCc1cccc2c(CCO)c[nH]c12  cytotoxicity increase                        inactive
12                   CC/C=C\CC/C=C/C(OCC)OCC  cytotoxicity increase                        inactive
13      OC1CCCCC1c1ccccc1 (stereo not given)  cytotoxicity increase                        inactive
14  NS(=O)(=O)c1cc(C(=O)NN2C[C@H]3[C@H]4CCC(C4)[C@H]3C2)ccc1Cl  cytotoxicity increase                        inactive
15  COc1nc(N)nc2c1ncn2[C@@H]1O[C@H](CO)[C@@H](O)[C@@H]1O  cytotoxicity increase                        inactive
16            CCCCOCCOCCOCc1cc2c(cc1CCC)OCO2  cytotoxicity increase                        inactive
17  CN1CCN(c2cc3c(cc2F)c(=O)c(C(=O)O)cn3-c2ccc(F)cc2)CC1  cytotoxicity increase                        inactive
18    FC(F)OC(Cl)C(F)(F)F (stereo not given)  cytotoxicity increase                        inactive
19  NS(=O)(=O)c1cc2c(cc1Cl)NC(C1CC3C=CC1C3)NS2(=O)=O (stereo not given)  cytotoxicity increase                        inactive
20     CC(=O)OCC(CCn1cnc2cnc(N)nc21)COC(C)=O  cytotoxicity increase                        inactive
21  N=C(N)c1ccc2cc(OC(=O)c3ccc(N=C(N)N)cc3)ccc2c1  cytotoxicity increase                        inactive
22                          CCCCCCCCCCCCCC=O  cytotoxicity increase  -1.61% [at 6.97 µM] (inactive)
23                  Cc1ccc(=O)n(-c2ccccc2)c1  cytotoxicity increase                        inactive
24  COc1ccc2c(c1)c(CC(=O)OCC(=O)O)c(C)n2C(=O)c1ccc(Cl)cc1  cytotoxicity increase                        inactive
25  CC(=O)OCC(=O)[C@@]1(O)CC[C@H]2[C@@H]3CCC4=CC(=O)CC[C@]4(C)[C@H]3C(=O)C[C@@]21C  cytotoxicity increase                        inactive
26       CCC(C)C1CCCCC1=O (stereo not given)  cytotoxicity increase                        inactive
27  C[C@H](NC(CCc1ccccc1)C(=O)O)C(=O)N1CCC[C@H]1C(=O)O (stereo not given in full)  cytotoxicity increase                        inactive
28  O=C(O)Cc1ccc(CCNS(=O)(=O)c2ccc(Cl)cc2)cc1  cytotoxicity increase                        inactive
29                                  C1OCOCO1  cytotoxicity increase                        inactive
30                            Cc1ccc(C#N)cc1  cytotoxicity increase                        inactive
31                            C=CCS(=O)(=O)O  cytotoxicity increase                        inactive
32                           CCCCNC(=O)NCCCC  cytotoxicity increase                        inactive
33                       Nc1cc(=O)[nH]c(N)n1  cytotoxicity increase                        inactive
34  NC(=O)COCCN1CCN(C(c2ccccc2)c2ccc(Cl)cc2)CC1 (stereo not given)  cytotoxicity increase                        inactive
35                C=C1CC[C@H]2C[C@@H]1C2(C)C  cytotoxicity increase                        inactive
36              CCCN(CCC)CCc1cccc2c1CC(=O)N2  cytotoxicity increase                        inactive
37   CCCCCCCCCCCCN(CCCCCCCCCCCC)CCCCCCCCCCCC  cytotoxicity increase                        inactive
38                         O=C1CCCCCCCCCCCN1  cytotoxicity increase                        inactive
39    CN1C(=O)N(C)C(O)C1O (stereo not given)  cytotoxicity increase                        inactive
40                           O=c1cc(CO)occ1O  cytotoxicity increase                        inactive
41       Cc1cc2c(cc1S(N)(=O)=O)S(=O)(=O)CCC2  cytotoxicity increase                        inactive
42                              OCCCC1CCCCC1  cytotoxicity increase                        inactive
43   CCC(=O)OC(C)c1ccccc1 (stereo not given)  cytotoxicity increase                        inactive
44    O=C[C@H](O)[C@@H](O)[C@H](O)[C@H](O)CO  cytotoxicity increase                        inactive
45                      NS(=O)(=O)c1ccccc1Cl  cytotoxicity increase                        inactive
46  CCCCC(CC)COC(=O)c1ccccc1O (stereo not given)  cytotoxicity increase                        inactive
47  CC(C(=O)O)c1ccc(CC2CCCC2=O)cc1 (stereo not given)  cytotoxicity increase                        inactive
48         CCCN1CCCC[C@H]1C(=O)Nc1c(C)cccc1C  cytotoxicity increase                        inactive
49                      CN1N=C(C(N)=O)CCC1=O  cytotoxicity increase                        inactive
50                               COCCCOCCCOC  cytotoxicity increase                        inactive
